Consider the following pKi values measured on Metabotropic glutamate receptor 5 (Rattus norvegicus, UniProt P31424).
Sequence (P31424 whole entry): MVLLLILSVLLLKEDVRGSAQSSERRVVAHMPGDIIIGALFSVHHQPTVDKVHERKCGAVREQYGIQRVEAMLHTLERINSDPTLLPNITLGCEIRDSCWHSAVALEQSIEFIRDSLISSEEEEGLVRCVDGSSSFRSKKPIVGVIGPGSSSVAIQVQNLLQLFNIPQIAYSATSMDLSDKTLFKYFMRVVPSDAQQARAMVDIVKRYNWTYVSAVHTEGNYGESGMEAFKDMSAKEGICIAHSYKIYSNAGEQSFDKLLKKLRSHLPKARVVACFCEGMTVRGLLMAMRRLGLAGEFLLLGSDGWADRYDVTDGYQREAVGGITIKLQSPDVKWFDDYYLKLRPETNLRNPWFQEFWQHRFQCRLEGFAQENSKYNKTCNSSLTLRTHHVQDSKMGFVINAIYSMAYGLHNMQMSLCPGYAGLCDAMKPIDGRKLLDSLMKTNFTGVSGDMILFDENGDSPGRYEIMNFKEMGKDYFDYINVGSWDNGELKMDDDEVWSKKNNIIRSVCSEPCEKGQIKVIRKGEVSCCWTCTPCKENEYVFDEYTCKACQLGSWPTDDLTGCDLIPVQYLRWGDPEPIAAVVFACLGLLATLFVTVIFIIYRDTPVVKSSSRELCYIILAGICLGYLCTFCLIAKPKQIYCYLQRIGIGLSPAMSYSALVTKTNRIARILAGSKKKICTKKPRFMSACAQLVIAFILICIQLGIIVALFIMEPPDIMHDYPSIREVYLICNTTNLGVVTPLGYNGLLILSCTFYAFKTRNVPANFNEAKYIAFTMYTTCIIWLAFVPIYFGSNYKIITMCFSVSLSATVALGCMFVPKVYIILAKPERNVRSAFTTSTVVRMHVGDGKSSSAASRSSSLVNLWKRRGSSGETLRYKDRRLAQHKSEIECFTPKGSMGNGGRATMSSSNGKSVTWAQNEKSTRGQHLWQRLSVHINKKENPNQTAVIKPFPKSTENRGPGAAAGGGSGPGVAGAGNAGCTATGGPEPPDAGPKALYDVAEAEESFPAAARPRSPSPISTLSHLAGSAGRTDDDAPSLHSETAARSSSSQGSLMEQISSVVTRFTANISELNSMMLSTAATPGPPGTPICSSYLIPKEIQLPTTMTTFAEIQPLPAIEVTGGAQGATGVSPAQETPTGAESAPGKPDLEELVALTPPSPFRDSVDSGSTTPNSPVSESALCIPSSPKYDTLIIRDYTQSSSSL
pKi: −log10 of the molar value.
quantity name: pKi

O=S(=O)(c1ccc(Cl)cc1)c1sc2ncccc2c1-c1ccccc1F | 7.29

(a) N#Cc1cccc(S(=O)(=O)c2sc3ncc(N)cc3c2-c2cccc(Cl)c2)c1
(b) O=S(=O)(c1ccc(Cl)cc1)c1sc2nccc(F)c2c1-c1ccc(Cl)cc1
[ask] Could you please tell me which of these two has the higher pKi: a or b ? Give the label of your selection.
[reply] a
(a: 7.84, b: 6.67)

(a) O=S(=O)(c1cccc(F)c1)c1sc2ncccc2c1-c1ccc(Cl)cc1
(b) N#Cc1cc(F)cc(S(=O)(=O)c2sc3ncccc3c2-c2cnccc2F)c1
[ask] I would appreciate it if you could say which entry, a or b , has the lower pKi value. To answer, give the label that identifies your chosen option.
[reply] a
